targetEntity: human TSHR (Homo sapiens, UniProt P16473)
Construct: expressed in transfected cells
Sequence (P16473 21-764): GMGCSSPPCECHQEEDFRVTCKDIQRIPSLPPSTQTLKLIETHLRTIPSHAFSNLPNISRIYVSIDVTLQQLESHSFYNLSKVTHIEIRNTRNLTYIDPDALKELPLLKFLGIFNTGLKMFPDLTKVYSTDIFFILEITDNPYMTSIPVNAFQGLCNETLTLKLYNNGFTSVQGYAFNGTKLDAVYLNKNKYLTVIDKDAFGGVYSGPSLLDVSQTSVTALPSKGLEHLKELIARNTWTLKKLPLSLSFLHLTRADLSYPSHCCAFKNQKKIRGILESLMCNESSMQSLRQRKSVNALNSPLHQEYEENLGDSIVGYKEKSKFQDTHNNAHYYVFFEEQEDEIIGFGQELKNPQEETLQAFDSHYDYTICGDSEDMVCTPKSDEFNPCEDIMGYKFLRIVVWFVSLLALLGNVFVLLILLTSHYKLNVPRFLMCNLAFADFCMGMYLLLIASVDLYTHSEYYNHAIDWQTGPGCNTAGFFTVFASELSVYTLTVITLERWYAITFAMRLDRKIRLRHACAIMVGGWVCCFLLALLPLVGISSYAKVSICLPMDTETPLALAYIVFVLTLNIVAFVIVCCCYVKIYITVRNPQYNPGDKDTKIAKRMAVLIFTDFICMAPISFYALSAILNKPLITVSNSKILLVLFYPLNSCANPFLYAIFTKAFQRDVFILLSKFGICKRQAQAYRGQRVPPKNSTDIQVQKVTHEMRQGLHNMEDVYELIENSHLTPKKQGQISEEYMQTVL
testDescription: Homogeneous Time Resolved Fluorescence (HTRF) cAMP assay, TSHR cell line
Format: cell-based
recordedConditions: HTRF cAMP, TSHR cell line, 30 minute incubation; read-out: AC50
recordedEndpoint: AC50 (µM)
Give the value, in units of µM, as a plain number.

COc1ccc(C2Nc3ccc(NC(C)=O)cc3C(=O)N2Cc2ccccc2)cc1COc1ccc(NC(C)=O)cc1 (stereo not shown) [Structure 32] ... 15.8

Given COc1ccc(OCc2cc(C3Nc4ccccc4C(=O)N3Cc3ccccc3)ccc2OC)cc1 (stereo not shown) [Structure 87] , state its recorded AC50.
3.98

###

targetEntity: human TSHR (Homo sapiens)
Construct: expressed in transfected cells
testDescription: Homogeneous Time Resolved Fluorescence (HTRF) cAMP assay, TSHR cell line
Format: cell-based
recordedConditions: 100% activity = response of 30 mU/ml TSH, 0% = DMSO control; in %
recordedEndpoint: Maximum Activity compared to TSH
I'd appreciate a reply containing only the number, no unit.

COc1ccc(CN(Cc2ccccc2)C(=O)c2ccc(O)cc2)cc1COc1ccc(NC(C)=O)cc1 [Structure 73] ... 75.04
COc1ccc(CN(Cc2ccccc2)C(=O)c2ccccc2O)cc1 [Structure 291] ... 38.00
COc1ccc(C2Nc3ccccc3C(=O)N2Cc2ccco2)cc1COc1ccc(NC(C)=O)cc1 (stereo not drawn) [Structure 94] ... 160.25
COc1cccc(-c2nc(SC)nc3sc(C(=O)NC(C)(C)C)c(N)c23)c1 ... 30.00
COc1ccc(CN(Cc2ccccc2)C(=O)c2ccccc2)cc1COc1ccc(NC(C)=O)cc1 [Structure 40] ... 128.80
COc1ccc(C2Nc3ccccc3C(=O)N2Cc2ccco2)cc1COc1ccc(NC(C)=O)cc1 (stereo not drawn) [Structure 34] ... 122.30
COc1ccc(C2Nc3ccccc3C(=O)N2Cc2ccco2)cc1COc1ccc(NC(C)=O)cc1 (stereo not drawn) [Structure 9] ... 115.62
COc1ccc(CN2C(=O)c3ccccc3NC2c2ccc(OC)c(COc3ccc(NC(C)=O)cc3)c2)cc1 (stereo not drawn) [Structure 30] ... 63.65

Kindly review the next molecule as well.
Maximum Activity compared to TSH lookup needed for `COc1ccc(CN(Cc2ccccc2)C(=O)C2CC2)cc1COc1ccc(NC(C)=O)cc1` , thanks.
76.98

###

targetEntity: human TSHR (Homo sapiens, UniProt P16473)
Construct: expressed in transfected cells
testDescription: Homogeneous Time Resolved Fluorescence (HTRF) cAMP assay, TSHR cell line
Format: cell-based
recordedConditions: HTRF cAMP, TSHR cell line, 30 minute incubation; read-out: AC50
Cut-off 20 µM on AC50: below means T, at or above means F.

COc1ccc(-c2nc3cccc(OC)c3c(=O)n2Cc2ccccc2)cc1COc1ccc(NC(C)=O)cc1 [Structure 218] ... F

--- query ---
Threshold test, AC50 < 20 µM: COc1ccc(CN(Cc2ccccc2)C(=O)c2ccno2)cc1COc1ccc(NC(C)=O)cc1 [Structure 248]
F

###

targetEntity: human TSHR (Homo sapiens)
Construct: expressed in transfected cells
testDescription: Homogeneous Time Resolved Fluorescence (HTRF) cAMP assay, TSHR cell line
Format: cell-based
recordedConditions: HTRF cAMP, TSHR cell line, 30 minute incubation; read-out: AC50
Text: Generation of Stable Cell-Lines Expressing TSHR, LHCGR or FSHR. cDNA for human TSHR was amplified by PCR from hTSHR-pSVL (1) and inserted into the pcDNA3.1(−)/hygromycin vector using restriction sites XhoI and BamHI. cDNA for human LHCGR was amplified by PCR from hLHR-pGS5 (2) and was inserted into the pcDNA3.1(+)/hygromycin vector using restriction sites BamHI and XhoI. […] Homogeneous Time Resolved Fluorescence (HTRF) cAMP Assay. […]
AC50 overview
Give the number; µM is assumed, so skip it.

O=C(c1ccccc1O)N(Cc1ccco1)Cc1cccs1 ... 39.8
COc1ccc(C2Nc3ccccc3C(=O)N2C2CCCC2)cc1COc1ccc(NC(C)=O)cc1 (stereo not shown) [Structure 258] ... 28.2

Need AC50, item COc1ccc(C2Nc3ccccc3C(=O)N2Cc2ccc(-c3ccccc3)cc2)cc1COc1ccc(NC(C)=O)cc1 (stereo not shown)
2.82

// repeat for COc1cccc(CN2C(=O)c3ccccc3NC2c2ccc(OC)c(COc3ccc(NC(C)=O)cc3)c2)c1 (stereo not shown) [Structure 46] and report
7.94

Now consider COc1ccc(C2Nc3ccccc3C(=O)N2CCc2ccccc2)cc1COc1ccc(NC(C)=O)cc1 (stereo not shown) [Structure 67] .
7.94

Next compound up: COc1ccc(C2Nc3ccccc3C(=O)N2Cc2ccco2)cc1COc1ccc(NC(C)=O)cc1 (stereo not shown) [Structure 19]
15.8

Subsequent entry: COc1ccc(CNc2ccccc2C(=O)NCc2ccccc2)cc1COc1ccc(NC(C)=O)cc1 [Structure 134]
8.91

Next up: COc1ccc(CN(Cc2ccccc2)C(=O)c2ccncc2)cc1COc1ccc(NC(C)=O)cc1 [Structure 117]
44.7

Queued: COc1ccc(C2Nc3ccccc3C(=O)N2Cc2ccco2)cc1COc1ccc(NC(C)=O)cc1 (stereo not shown) [Structure 1]
12.6

Values from patent US9458141B2
